Target: biotinylated beta-catenin (Homo sapiens, UniProt P35222)
Sequence (P35222 whole entry): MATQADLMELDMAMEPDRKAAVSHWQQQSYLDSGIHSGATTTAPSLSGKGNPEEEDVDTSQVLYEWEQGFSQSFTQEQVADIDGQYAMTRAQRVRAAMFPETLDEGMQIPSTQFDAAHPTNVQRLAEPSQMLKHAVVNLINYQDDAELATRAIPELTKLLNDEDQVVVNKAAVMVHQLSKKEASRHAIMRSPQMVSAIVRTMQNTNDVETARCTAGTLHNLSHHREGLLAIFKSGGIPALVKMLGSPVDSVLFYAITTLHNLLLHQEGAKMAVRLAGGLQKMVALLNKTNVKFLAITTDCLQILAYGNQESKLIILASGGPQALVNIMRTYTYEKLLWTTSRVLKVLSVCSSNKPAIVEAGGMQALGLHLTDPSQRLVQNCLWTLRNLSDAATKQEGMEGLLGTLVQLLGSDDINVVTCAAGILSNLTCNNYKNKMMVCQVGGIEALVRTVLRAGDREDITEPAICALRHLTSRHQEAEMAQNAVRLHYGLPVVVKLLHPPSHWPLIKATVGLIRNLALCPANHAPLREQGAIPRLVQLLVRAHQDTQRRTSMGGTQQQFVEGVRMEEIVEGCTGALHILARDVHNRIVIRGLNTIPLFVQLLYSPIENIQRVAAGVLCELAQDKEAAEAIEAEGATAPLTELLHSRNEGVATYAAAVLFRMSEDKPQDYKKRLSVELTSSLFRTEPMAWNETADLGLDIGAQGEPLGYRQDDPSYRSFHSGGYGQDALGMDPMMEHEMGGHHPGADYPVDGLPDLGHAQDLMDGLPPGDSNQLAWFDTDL
Assay: Surface Plasmon Resonance (Biacore)
Format: binding
Details: Table 2; read-out: Kd by SPR
PROPERTY_NAME: Kd (nM)
Write the answer as a number in nM, unit excluded.

CC[C@H](C)[C@@H]1NC(=O)[C@H](Cc2c[nH]cn2)NC(=O)[C@H](C)NC(=O)[C@H](CC(=O)O)NC(=O)[C@H](CC(C)C)NC(=O)[C@H]([C@@H](C)CC)NC(=O)[C@](C)(NC(=O)[C@H](C)NC(C)=O)CCCCCCC=CCOC(=O)N(C)C[C@@](C)(C(=O)N[C@@H](CCCNC(=N)N)C(=O)N[C@H](C(=O)N[C@@H](Cc2c[nH]c3ccccc23)C(N)=O)C(C)C)NC1=O [FP0338c, Ac-A-R8-I-L-D-A-H-I-MD-R-V-W-NH2]    3

Lookup: Name the recorded Kd for CC[C@H](C)[C@@H]1NC(=O)[C@](C)(NC(=O)[C@H](CCC(N)=O)NC(=O)[C@@H]2CCCN2C(C)=O)CCCC=CCOC(=O)N2CC[C@](C(=O)N[C@@H](Cc3c[nH]cn3)C(=O)N[C@H](C(=O)N[C@@H](CCCNC(=N)N)C(=O)N[C@@H](CCCNC(=N)N)C(=O)N[C@H](C(=O)N[C@@H](Cc3c[nH]c4ccccc34)C(=O)N[C@@H](CCCNC(=N)N)C(N)=O)C(C)C)C(C)C)(C2)NC(=O)[C@H](CC(=O)O)NC(=O)[C@H](CC(C)C)NC1=O (single isomer, unassigned) [FP0766c, Ac-P-Q-R5-I-L-D-MC-H-V-R-R-V-W-R-NH2] .
Found: 7
